# maps each entry to its normalized growth
protocol_details: chemical genetic growth profiling, strain panel (AID 1159580);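 note: tested at 20 µM; growth read once vehicle control cultures reached saturation at 30 °C; 1 = growth at the plate median or of vehicle wells; lower values mean less growth of the strain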
condition_details: S. cerevisiae deletion strains, growth OD, locus YML032C, strain rad52, hits give low values
Out of some 5,500 compounds screened, about 2,000 (36%) were called active. Not shown: some 18% with an inconclusive outcome. The list shows a part of the results.
measure_name: normalized growth

1. CC(CN(C)C)CN1c2ccccc2CCc2ccccc21 (stereo unspecified) :: 1.01
2. Nc1ccn(C2O[C@H](CO)[C@@H](O)[C@H]2O)c(=O)n1 (stereo partly specified) :: 0.993
3. CN1CC(CNC(=O)OCc2ccccc2)CC2c3cccc4c3c(cn4C)CC21 (stereo unspecified) :: 0.998
4. C=C[C@H]1CN2CC[C@H]1C[C@@H]2[C@H](O)c1ccnc2ccccc12 :: 0.968
5. COc1cc(OC)c(OC)cc1C=O :: 1.04
6. Cc1nc2ccccn2c(=O)c1CCN1CCC(C(=O)c2ccc(F)cc2)CC1 :: 0.985

###

protocol_details: chemical genetic growth profiling, strain panel (AID 1159580);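 note: tested at 20 µM; growth read once vehicle control cultures reached saturation at 30 °C; 1 = growth at the plate median or of vehicle wells; lower values mean less growth of the strain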
condition_details: S. cerevisiae deletion strains, growth OD, locus YNL071W, strain lat1, hits give low values
Among all 5,500 compounds or so, about 2,000 (36%) were called active. Inconclusive results (about 18%) are left out. The list shows a part of the results.
normalized growth strictly under 1 means criterion met; at 1 or over means criterion not met.

1. C[C@@H]1O[C@@H](O[C@H]2C[C@@H](O)[C@]3(CO)C4C(CC[C@]3(O)C2)[C@@]2(O)CC[C@H](C3=CC(=O)OC3)[C@@]2(C)C[C@H]4O)[C@H](O)[C@H](O)[C@H]1O (stereo partly drawn) :: criterion not met
2. CC(CCC(=O)O)[C@H]1CCC2C3CC[C@@H]4C[C@H](O)CC[C@]4(C)C3CC[C@@]21C (stereo partly drawn) :: criterion met
3. N[C@H](Cc1cc(I)c(Oc2ccc(O)c(I)c2)c(I)c1)C(=O)O :: criterion met

###

protocol_details: chemical genetic growth profiling, strain panel (AID 1159580);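 note: tested at 20 µM; growth read once vehicle control cultures reached saturation at 30 °C; 1 = growth at the plate median or of vehicle wells; lower values mean less growth of the strain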
condition_details: S. cerevisiae deletion strains, growth OD, locus YIL125W, strain kgd1, hits give low values
About 2,000 (36%) of roughly 5,500 compounds were called active. About 18% were inconclusive and are not listed. This is one part of the list.
# maps each entry to its normalized growth
measure_name: normalized growth

1) COc1c2ccccc2nc2occc12 :: 0.981 (inactive)
2) CCCC(CCC)C(=O)O :: 0.92 (active)
3) CC1(C)C(O)CC(O)C2(C)C1CC(O)C1(C)C2CCC2(C)C(c3ccoc3)OC(=O)C3OC321 (configuration not stated) :: 1.01 (inactive)
4) CC12CC3CC(C)(C1)CC(N)(C3)C2 :: 1 (inactive)
5) S=P(N1CC1)(N1CC1)N1CC1 :: 1.01 (inactive)
6) COc1cc2c(cc1-c1cc3cc4ccoc4cc3oc1=O)OCO2 :: 0.984 (inactive)
7) COc1cc2c(cc1/C=C/C(=O)c1cc(OC)c(OC)cc1OC)OCO2 :: 1.03 (inactive)
8) Cc1cc(=O)oc2c(O)c(O)ccc12 :: 0.975 (inactive)
9) Cc1cccc(Nc2ccncc2S(=O)(=O)NC(=O)NC(C)C)c1 :: 1.01 (inactive)
10) COc1c2ccoc2nc2c(OC)c(OCC(O)C(C)(C)O)ccc12 (configuration not stated) :: 0.999 (inactive)
11) Nc1ccn(C2O[C@H](CO)[C@@H](O)[C@H]2O)c(=O)n1 (some centres not stated) :: 1.01 (inactive)
12) O=c1[nH]cnc2[nH]ncc12 :: 1.02 (inactive)

The measurements presented in this section are drawn from PubChem BioAssay AID1159580.
